- target under test: T1, monomeric hIL-4R (R&D Systems) (human, UniProt P24394 26-231)
- T1 construct: Bought (R&D Systems); also called hIL-4R monomer
- T1 sequence: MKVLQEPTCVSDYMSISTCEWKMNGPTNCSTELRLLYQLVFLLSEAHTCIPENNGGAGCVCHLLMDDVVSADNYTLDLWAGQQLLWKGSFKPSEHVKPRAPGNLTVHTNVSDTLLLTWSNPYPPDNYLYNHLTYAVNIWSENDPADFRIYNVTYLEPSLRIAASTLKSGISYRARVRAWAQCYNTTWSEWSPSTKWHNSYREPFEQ
- assay remarks: SPR (BIAcore 2000); antibody captured, monomeric hIL-4R injected
metric name: T1/2 monomeric (min)

binder | reported result
VAB 11G8-1 (antibody, V domains shown, Apparently tested with mouse constant region (anti-mouse IgG capture/detection)) VH: QVQLVQSGAEVKKPGASVKVSCKASGYTFTNYGISWVRQAPGQGLEWMGWISVYNGHTNYAQKLQGRVTMTTDTSTSTAYMELRSLRSDDTAVYYCARGSGYDFDSWGQGTLVTVSS VL: AIQMTQSSSSLSASVGDRVTITCRASQAIRNALGWYQQKPGKAPKVLIYAASSLQSGIPSRFSGSGSGTDFTLTISSLQPEDFATYYCLQDYDYPYTFGQGTKLEIK | 25
VX 4E7-9 (antibody, V domains shown, 387/389; Apparently tested with mouse constant region (anti-mouse IgG capture/detection)) VH: QVQLVQSGAEVKKPGASVKVSCKASGYTFTNYGISWVRQAPGQGLEWMGWISVYNGKTNYAQKLQGRVTMTTDTSTTTAYMEMRSLRSDDTAVYYCARGSGYDLDYWGQGTLVSVSS VL: AIQMTQSPSSLSASVGDRVTITCRASQGIRNALGWYQQKPGKAPKLLIYAASSLQSGVPSRFSGSGSGTDFTLTFSSLQPEDFATYYCLQDFNYPYTFGQGTKLEIK | 48
VAB 4D5-3 (antibody, V domains shown, Apparently tested with mouse constant region (anti-mouse IgG capture/detection)) VH: QVQLVQSGPEVKKPGASVKVSCKASGYTFTNYGISWVRQAPGQGLEWMGWISVYNGKTNYAQKFQGRVTMTTDTSTSTAYMDLRSLRSDDTAVYYCARGSGYDFDYWGQGTLVTVSS VL: AIQMTQSPSSLSASVGDRVTITCRASQGIRNALGWYQQKPGKAPKLLIFASSSLQSGVPSRFSGSGSGTDFTLTIRSLQPEDFAAYYCLQDYNYPYTFGQGTKLEIK | 35
